Taken from patent US20130129722A1.

# reported pKd; entries follow
biological target: Dimeric Mouse Ang-2FD conjugated to human IgG1 (mouse (Mus musculus)); assay: SPR, antibody captured, room temperature
Sequence (chain, as listed by the source limits assumed): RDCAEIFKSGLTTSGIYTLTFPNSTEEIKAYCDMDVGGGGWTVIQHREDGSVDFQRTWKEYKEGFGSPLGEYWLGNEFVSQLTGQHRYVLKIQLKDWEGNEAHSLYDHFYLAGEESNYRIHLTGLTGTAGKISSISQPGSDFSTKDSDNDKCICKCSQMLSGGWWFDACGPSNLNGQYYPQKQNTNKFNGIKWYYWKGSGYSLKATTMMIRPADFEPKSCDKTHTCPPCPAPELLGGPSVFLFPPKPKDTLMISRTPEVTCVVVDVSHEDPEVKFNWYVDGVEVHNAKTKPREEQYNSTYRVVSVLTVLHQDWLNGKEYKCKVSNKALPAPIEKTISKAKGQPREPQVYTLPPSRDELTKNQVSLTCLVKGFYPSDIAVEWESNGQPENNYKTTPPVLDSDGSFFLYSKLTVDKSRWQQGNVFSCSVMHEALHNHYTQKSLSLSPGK
FYI, pKd means -log10 of a concentration in mol per litre.

H2M742N (antibody, V domains shown) VH: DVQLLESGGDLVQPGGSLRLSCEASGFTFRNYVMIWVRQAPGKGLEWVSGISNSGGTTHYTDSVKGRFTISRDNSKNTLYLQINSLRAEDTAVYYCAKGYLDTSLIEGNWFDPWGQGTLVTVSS VL: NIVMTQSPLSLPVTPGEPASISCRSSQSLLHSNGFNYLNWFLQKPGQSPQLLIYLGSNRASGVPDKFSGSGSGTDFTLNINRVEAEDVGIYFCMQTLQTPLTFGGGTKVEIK ... 9.21
H2M743N (antibody, V domains shown) VH: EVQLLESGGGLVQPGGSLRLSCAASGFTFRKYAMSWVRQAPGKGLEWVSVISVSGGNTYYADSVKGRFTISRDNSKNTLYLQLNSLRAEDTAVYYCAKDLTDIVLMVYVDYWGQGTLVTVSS VL: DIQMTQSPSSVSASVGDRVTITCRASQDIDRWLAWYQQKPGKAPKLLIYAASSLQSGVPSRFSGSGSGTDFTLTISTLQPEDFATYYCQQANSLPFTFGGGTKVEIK ... 9.05
H1M728N (antibody, V domains shown) VH: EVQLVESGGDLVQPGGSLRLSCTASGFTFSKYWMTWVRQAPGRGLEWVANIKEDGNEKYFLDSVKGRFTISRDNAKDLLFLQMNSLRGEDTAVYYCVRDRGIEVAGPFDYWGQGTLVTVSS VL: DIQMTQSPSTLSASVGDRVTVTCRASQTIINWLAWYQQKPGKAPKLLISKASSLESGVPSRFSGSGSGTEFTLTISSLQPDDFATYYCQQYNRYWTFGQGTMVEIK ... 8.25

Turning to the following binder.
Looking up H1M732N (antibody, V domains shown) VH: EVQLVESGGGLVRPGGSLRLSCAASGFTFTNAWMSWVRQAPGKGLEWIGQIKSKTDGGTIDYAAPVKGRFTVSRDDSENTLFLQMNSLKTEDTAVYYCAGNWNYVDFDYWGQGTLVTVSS VL: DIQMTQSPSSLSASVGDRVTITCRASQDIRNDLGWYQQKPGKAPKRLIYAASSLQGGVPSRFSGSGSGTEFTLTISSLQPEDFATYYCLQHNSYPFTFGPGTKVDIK , I found its pKd recorded as 8.77
